subjectOfTest: T. brucei farnesyl diphosphate synthase (TbFPPS) (Trypanosoma brucei, UniProt Q57WF1)
pIC50: −log10 of the molar value.
measureName: pIC50

Record request: pIC50 value, item N=C(N)c1ccc(-c2ccc(-c3ccc(C(=N)N)cc3)o2)cc1 [compound 6] ~4.30

----------
Test system: T. brucei bloodstream form (BSF) parasites
assayText: T. brucei growth inhibition
Type: cell-based, Trypanosoma brucei brucei Lister 427
conditionInfo: Trypanosoma brucei, read-out: T. brucei EC50
measureName: pEC50
Please treat pEC50 as minus the base-10 logarithm of the molar concentration.

Record request: pEC50 value, item N=C(N)c1ccc(OCCCCCOc2ccc(C(=N)N)cc2)cc1 [compound 2, pentamidine] 8.30
